Assay: Thermogravimetric analysis (thermal stability)
Conditions: DTG, air atmosphere, 10 °C min−1
Description: The thermal stabilities of the obtained NSAIDs isopropyl ester amino acid salts were investigated. […] The beginning of thermal degradation was evaluated based on the value of onset of the TG curve, which occurs in the first phase of the process. […] Thermogravimetric analysis (TG) Thermogravimetric analysis was carried out using Netzsch Proteus Thermal Analy- […] Samples of 5–8 mg were loaded in Al2O3 […] Phase transformation temperatures were determined on a PerkinElmer DSC-7 (Rot-gau, Germany). […]
READOUT: TDTGmax, maximum decomposition temperature (°C)

COMPOUND	READOUT_VALUE
CSCC[C@H](N)C(=O)OC(C)C.O=C(O)c1ccccc1O [[L-MetOiPr][SA], L-methionine isopropyl ester salicylate]	205.0
COc1ccc2cc([C@H](C)C(=O)O)ccc2c1.CSCC[C@H](N)C(=O)OC(C)C [[L-MetOiPr][NAP], L-methionine isopropyl ester naproxenate]	293.2
CC[C@H](C)[C@H](N)C(=O)OC(C)C.O=C(O)c1ccccc1O [[L-IleOiPr][SA], L-isoleucine isopropyl ester salicylate]	202.4
